Time: recorded values
tested on: Mus musculus; assay: Antidepressant activity in Swiss mouse assessed as immobility duration at 10 mg/kg, ip administered 30 mins prior test measured during last 4 mins of 6 mins observation period by forced-swimming test (reference value: 166 +/- 12.23 to 218.54 +/- 8.11 Secs); type: functional; settings: route intraperitoneal
Write it as a number; the unit s goes unstated.

Study these solved cases before continuing.
In: Given "O=C1c2cccc3cccc(c23)C(=O)N1Cc1ccc(S(=O)(=O)N2CCCC2)cc1" , state its recorded Time.
Out: 67.37

In: Consider the compound shown here: CC12C=CC(O1)C1C(=O)N(c3ccc(S(=O)(=O)N4CCOCC4)cc3)C(=O)C12 (stereo not given) What is its recorded Time?
Out: 131

In: Please look up its Time: "COc1cc(/C=N/NS(=O)(=O)c2ccc(CN3C(=O)c4cccc5cccc(c45)C3=O)cc2)ccc1O"
Out: 70.75

In: Recorded Time for CN(C)CCCN1c2ccccc2CCc2ccccc21 [IMIPRAMINE] , please?
Out: 49.85

New cases:
In: Using the record for Cc1ccc(/C=N/NS(=O)(=O)c2ccc(N3C(=O)C4C5C=CC(C)(O5)C4C3=O)cc2)cc1 (stereo not given) , report its Time.
Out: 83

* * *

tested on: Mus musculus; test: Toxicity in Swiss mouse assessed as number of rearing at 10 mg/kg, ip administered 30 mins prior test measured during last 4 mins of 6 mins observation period by forced-swimming test by locomotory test (reference value: 39.45 +/- 6.21); type: organism-based; design: dose 10 mg/kg, route intraperitoneal; conditions: in vivo
Recorded metric: Activity

In: Reported Activity for "O=C1c2cccc3cccc(c23)C(=O)N1Cc1ccc(S(=O)(=O)N2CCOCC2)cc1" : what is it?
Out: 36.67

In: Would you mind telling me what Activity value was observed for "COc1cc(/C=N/NS(=O)(=O)c2ccc(CN3C(=O)c4cccc5cccc(c45)C3=O)cc2)ccc1O" ?
Out: 40.75

In: Entry Cc1ccc(/C=N/NS(=O)(=O)c2ccc(N3C(=O)C4C5C=CC(C)(O5)C4C3=O)cc2)cc1 (centres undefined) : reported Activity = ?
Out: 43

In: Consider the compound shown here: O=C1C2C3C=CC(O3)C2C(=O)N1c1ccc(S(=O)(=O)N/N=C/c2ccc([N+](=O)[O-])cc2)cc1 (centres undefined) What is its recorded Activity?
Out: 38.37

In: So what does the record say about Activity for "O=C1c2cccc3c(Cl)ccc(c23)C(=O)N1CCc1ccc(S(=O)(=O)N2CCCC2)cc1" ?
Out: 42

In: Using the record for "O=C1c2cccc3cccc(c23)C(=O)N1Cc1ccc(S(=O)(=O)N2CCCC2)cc1" , report its Activity.
Out: 37.45

In: What does the data say about its Activity? Entry: CC12C=CC(O1)C1C(=O)N(c3ccc(S(=O)(=O)N4CCCC4)cc3)C(=O)C12 (centres undefined)
Out: 33

In: Item COc1ccc(/C=N/NS(=O)(=O)c2ccc(N3C(=O)C4C5C=CC(C)(O5)C4C3=O)cc2)cc1 (centres undefined) has what recorded Activity?
Out: 40.37

Others:
In: Could you tell me which Activity is on file for CC12C=CC(O1)C1C(=O)N(c3ccc(S(=O)(=O)N4CCOCC4)cc3)C(=O)C12 (centres undefined) ?
Out: 38

These entries and their values trace back to ChEMBL document CHEMBL1811911.
